Test: TEAD-YAP interaction inhibition, primary screen, TEAD-YAP interaction inhibitor project, luminescence, HEK-TIYL cells (AID 1259422)
Conditions: TEAD-Gal4/YAP UAS-luciferase luminescence, at 9.12 µM
Among all 640,000 compounds or so, about 9,300 (1.5%) were called active. Cut-off read from the data, not from the text of the source: active = inhibition above about 32%; inactive = the rest. The entries come from a sample that favours actives as a whole.
Thanks in advance; please answer with one of these: active, inactive

Req: What is the recorded call for this compound in the test? `O=C(CCCn1nnc(-c2ccccc2F)n1)c1ccc(O)cc1`
Resp: inactive

Req: What is the recorded call for this compound in the test? `Fc1ccc(-c2cnc3ccc(NC4CCOCC4)nn23)cc1Cl`
Resp: active

Req: What is the recorded call for this compound in the test? `CC1CCN(S(=O)(=O)c2cc(C(=O)Oc3cccc(NC(=O)c4ccccc4)c3)c(Cl)cc2Cl)CC1`
Resp: inactive

Req: What is the recorded call for this compound in the test? `O=C(Nc1ccc(-c2nc3cccnc3s2)cc1)C1CCCC1`
Resp: active

Req: What is the recorded call for this compound in the test? `O=S(=O)(c1ccc(Br)c2ccccc12)N1CCN(Cc2ccccc2)CC1`
Resp: inactive

Req: What is the recorded call for this compound in the test? `CNC(=O)c1ccccc1Nc1cc(NC(=O)C(F)(F)c2ccccc2)ncc1C(F)(F)F`
Resp: active

Req: What is the recorded call for this compound in the test? `CNC(=O)c1ccccc1Nc1cc(NC(=O)Cc2ccc(F)c(F)c2)ncc1C(F)(F)F`
Resp: active

Req: What is the recorded call for this compound in the test? `O=C(CSc1cccc2cccnc12)N/N=C/c1cccnc1`
Resp: active

Req: What is the recorded call for this compound in the test? `CCOc1ccc(NC(=O)c2ccc(F)c(S(=O)(=O)NCCc3ccccc3)c2)cc1`
Resp: inactive

Req: What is the recorded call for this compound in the test? `CC(C)[C@@H](Cn1nnc2ccccc21)NC(=O)c1ccc(N2CCCCS2(=O)=O)cc1`
Resp: inactive

Req: What is the recorded call for this compound in the test? CCOc1cc2c(cc1OCC)C(c1cc(OC)ccc1F)NCC2 (configuration not stated)
Resp: inactive

Req: What is the recorded call for this compound in the test? `CCOc1ccccc1NC(=O)c1ccc(F)c(S(=O)(=O)N2CCCC2)c1`
Resp: inactive

Req: What is the recorded call for this compound in the test? `O=C(Cc1ccc([N+](=O)[O-])cc1)Nc1ccccc1Cl`
Resp: inactive

Req: What is the recorded call for this compound in the test? `Cn1c(SCC(=O)c2ccc([N+](=O)[O-])cc2)nnc1C(F)(F)F`
Resp: inactive

Req: What is the recorded call for this compound in the test? `FC(F)(F)c1cccc(Nc2ccc(Br)cn2)c1`
Resp: inactive

Req: What is the recorded call for this compound in the test? `COCCNc1c(-c2ccc(Cl)cc2)c(=O)c1=O`
Resp: inactive

Req: What is the recorded call for this compound in the test? O=C(NN1CC(C(=O)OCc2ccc([N+](=O)[O-])cc2)CC1=O)c1ccccc1 (configuration not stated)
Resp: inactive

Req: What is the recorded call for this compound in the test? `Cc1cc(NC(=O)c2cccs2)ncc1NC(=O)c1ccccc1F`
Resp: inactive

Req: What is the recorded call for this compound in the test? `CN(CCC(=O)Nc1cccc(F)c1)Cc1ccccc1`
Resp: inactive

Req: What is the recorded call for this compound in the test? `O=C(Oc1cccc(NC(=O)c2ccccc2Cl)c1)c1ccc(Cl)c(S(=O)(=O)N2CCCCC2)c1`
Resp: inactive

Req: What is the recorded call for this compound in the test? CC(C)Cn1c(C2CC(=O)N(c3ccccc3)C2)nc2ccccc21 (configuration not stated)
Resp: inactive

Req: What is the recorded call for this compound in the test? `O=C(Nc1ccc(Br)cc1)c1cc2ccccc2c(=O)o1`
Resp: inactive

Hello, the source for this data is PubChem BioAssay AID1259422, in case you need it.
